system: pigweed, palmer; experiment: Test A postemergence; format: in vivo, Amaranthus palmeri; conditions: 500 g ai/ha, Postemergence; 0 to 100 scale
Quick list: Plant response rating, Pigweed, Palmer per entry.
assay_endpoint: Plant response rating, Pigweed, Palmer

CCc1cccc2c1OC(C)CN2C(=O)c1cccc(-n2cncn2)c1 (stereo not shown); 20
Cc1cccc2c1O[C@@H](C)CN2C(=O)c1cccc(-n2ncnc2C(C)C)c1; 0
Cc1cc(F)cc2c1OC(C)CN2C(=O)c1cccc(-n2cncn2)c1 (stereo not shown); 10
Cc1cccc2c1O[C@@H](C)CN2C(=O)c1cccc(-n2cnc(C(C)(C)C)n2)c1; 70

* * *

Quick list: Plant response rating, Barnyardgrass per entry.
test system: barnyardgrass; assay: Test B flooded paddy test; assay type: in vivo, Echinochloa crus-galli; conditions: 250 g ai/ha, Flood, 13 days, 0 to 100 scale (0 no effect, 100 complete control)
assay_endpoint: Plant response rating, Barnyardgrass

COc1ccc(-n2cnc(C(C)(C)C)n2)cc1C(=O)N1C[C@H](C)Oc2c(Cl)cccc21; 40
CC1CN(C(=O)c2cccc(-n3cncn3)c2)c2cccc(F)c2O1 (centres unmarked); 0
CC(C)c1ncn(-c2ccc(C#N)c(C(=O)N3C[C@H](C)Oc4c(Cl)cccc43)c2)n1; 20
C=CCOc1ccc(-n2cnc(C(C)C)n2)cc1C(=O)N1C[C@H](C)Oc2c(Cl)cccc21; 55
C[C@H]1CN(C(=O)c2cccc(-n3cnnn3)c2)c2cccc(Cl)c2O1; 0
C#CCOc1ccc(-n2cnc(C(C)C)n2)cc1C(=O)N1C[C@H](C)Oc2c(Cl)cccc21; 70
Cc1cccc2c1O[C@@H](C)CN2C(=O)c1cccc(-n2ncnc2C(C)C)c1; 0
CCc1ncn(-c2ccc(CC)c(C(=O)N3C[C@H](C)Oc4c(Cl)cccc43)c2)n1; 65
